Test system: SF-268 CNS
Test: NCI-60 one-dose screen, 48 h (100 = growth as untreated, 0 = no growth, -100 = all killed)
Details: 10 µM
About 83,000 compounds went through this panel and 20% of them were active in at least one assay; those are over-represented in the sample as a whole. Activity calls are given as the source filed them. The calls were made as follows: active = growth percent below 10; inactive = the rest.
The molecules listed here are annotated with their growth.

Some entries whose results are on file:
- molecule: "CC1[C@H]2[C@H](C[C@H]3[C@@H]4CC=C5c6sc(Nc7cccc(Cl)n7)nc6CC[C@]5(C)[C@H]4CC[C@@]32C)O[C@]12CC[C@@H](C)CO2 (stereo partly drawn)"
  experimental system: "SF-268 CNS"
  value measured: "86.9% (inactive)"
- molecule: "O=C(Nc1ccc(OCc2ccc(F)cc2)cc1)Nc1ccc(Cl)c(C(F)(F)F)c1"
  experimental system: "SF-268 CNS"
  value measured: "39% (inactive)"
- molecule: "Fc1ccc(/C=C/c2nc3ccccc3n3c(-c4ccc(Cl)cc4)nnc23)cc1"
  experimental system: "SF-268 CNS"
  value measured: "78% (inactive)"
- molecule: "Cn1cc(-c2cc3nc(-c4c[nH]c5ccccc45)cc(N)n3n2)c2cc(Cl)ccc21"
  experimental system: "SF-268 CNS"
  value measured: "-44.6% (active)"
- molecule: "COc1ccc(Cc2nn(CC(=O)N/N=C/c3ccc(Br)cc3)c(=O)c3c(C)noc23)cc1"
  experimental system: "SF-268 CNS"
  value measured: "37.3% (inactive)"
- molecule: "COc1cc2oc(-c3cccc(C(=O)Nc4ccc(Cl)cc4)c3)cc(=O)c2c(OCCN)c1OC"
  experimental system: "SF-268 CNS"
  value measured: "-76.8% (active)"
- molecule: "CC1(C)CC(=O)C2=C(C1)N(Cc1ccc(C(=O)O)cc1)C1=C(C(=O)CC(C)(C)C1)C2c1ccc(Cl)cc1"
  experimental system: "SF-268 CNS"
  value measured: "106% (inactive)"

# evaluate next
// recorded growth for Cc1ccc2c(c1)C(=O)/C(=C/c1c[nH]c3ccccc13)S2 : 44.9% (inactive)

====

Test system: MDA-MB-468 breast
Experiment: NCI-60 one-dose screen, 48 h (100 = growth as untreated, 0 = no growth, -100 = all killed)
Details: 10 µM unless noted
Compounds without any hit were thinned out: in the full panel of roughly 83,000, 20% have a hit. The source made the active and inactive calls. How the source made its calls: active means growth percent below 10; inactive means the rest.
The molecules listed here are annotated with their growth.

Some entries whose results are on file:
- substance smiles: "O=C(N/N=C\\c1ccc(Cl)cc1Cl)c1ccncc1"
  growth: "110% (inactive)"
- substance smiles: "Clc1ccc(-c2nc(-c3cccs3)no2)c(Cl)c1"
  growth: "8.37% (active)"
- substance smiles: "CC(C)CCN(CCCNc1c2c(nc3ccccc13)CCCC2)CCC(C)C"
  growth: "57.2% (inactive)"

# evaluate next
// recorded growth for CC(=O)c1cc(C)c(OC(=O)c2ccccc2)c(C)c1 : 94% (inactive)

====

Test system: MDA-MB-468 breast
Assay: NCI-60 one-dose screen, 48 h (100 = growth as untreated, 0 = no growth, -100 = all killed)
Conditions: 10 µM unless noted
Description: Growth inhibition of the MDA-MB-468 human Breast tumor cell line is measured as a screen for anti-cancer activity. Cells are grown in 96 well plates and exposed to the test compound for 48 hours. Compounds are tested at a single concentration, which is 10^-5 M for most compounds. The reported endpoint is percent growth (GI% or GIPRCNT), where numbers from 0 - 100% represent growth inhibition, and numbers from -100% - 0 represent cell death. […]
About 83,000 compounds went through this panel and 20% of them were active in at least one assay; those are over-represented in the sample as a whole.
The molecules listed here are annotated with their growth.
Write the answer as a number in %, unit excluded.

- molecule: "Cn1c(-c2ccccc2)c(/C=C/C2=[N+](C)c3ccccc3C2(C)C)c2ccccc21"
  growth [%]: -16.5
- molecule: "CN(C)CCCN(c1nc(C(Cl)(Cl)Cl)ns1)c1nc(C(Cl)(Cl)Cl)ns1"
  growth [%]: 14.5
- molecule: "Cn1ccnc1C(=O)/C=C/c1ccc(C(=O)Nc2ccc(Cl)cc2)cc1"
  growth [%]: 12.1
- molecule: "CCCCCCCC(=O)SCC/C=C/[C@@H]1CC(=O)NCc2nc(co2)C2=N[C@@](C)(CS2)C(=O)N[C@@H](C(C)C)C(=O)O1"
  growth [%]: -0.758
- molecule: "N#CC1C=Cc2c(ccc3ccccc23)N1C(=O)c1ccccc1 (stereo unspecified)"
  growth [%]: -10.5

# evaluate next
// recorded growth for O=S(=O)(O)c1ccc(Cl)cc1 : 105

====

Test system: MDA-MB-468 breast
Assay: NCI-60 one-dose screen, 48 h (100 = growth as untreated, 0 = no growth, -100 = all killed)
Settings: 10 µM unless noted
Compounds without any hit were thinned out: in the full panel of roughly 83,000, 20% have a hit.
Sorting guide: entries reporting growth beneath 90% go in the YES pile, the rest go in the NO pile.

Use these answered entries as a reference point.
- compound: "CSc1nc(NCCO)c(C#N)c(-c2cccc([N+](=O)[O-])c2)n1"
  experimental system: "MDA-MB-468 breast"
  classification: "NO"
- compound: "COC1OC(CO)C(OC)C(O)C1O (stereo not given)"
  experimental system: "MDA-MB-468 breast"
  classification: "YES"

Data request: Hi there! Is growth for NC(N)=Nc1cc2ccccc2c2ccccc12 below 90%, do you know?
Data returned: YES

Data request: Hi there! Is growth for CC(=O)c1sc(-c2ccc(F)cc2)cc1O below 90%, do you know?
Data returned: NO

Data request: Hi there! Is growth for O=S(=O)(c1ccccc1)N1CCCc2ccccc21 below 90%, do you know?
Data returned: NO

Data request: Hi there! Is growth for CN[C@@H]1C[C@H]2O[C@@](C)([C@@H]1OC)n1c3ccccc3c3c4c(c5c6ccccc6n2c5c31)C(=O)N[C@H]4O below 90%, do you know?
Data returned: YES

Data request: Hi there! Is growth for CC(=O)c1c(C)nc(SCC(=O)Nc2ccc(Cl)cc2)n1-c1ccc(Cl)cc1 below 90%, do you know?
Data returned: YES

====

Tested on: MDA-MB-468 breast
Assay: NCI-60 one-dose screen, 48 h (100 = growth as untreated, 0 = no growth, -100 = all killed)
Conditions: 10 µM unless noted
About 83,000 compounds went through this panel and 20% of them were active in at least one assay; those are over-represented in the sample as a whole.
observable: growth (%)
Write the answer as a number in %, unit excluded.

Some entries whose results are on file:
- compound: "COc1cc2nc(-c3ccc(Cl)cc3)cc(OCCCN3CCOCC3)c2cc1OC"
  unit text: "%"
  value measured: 59.9
- compound: "CN(C)CCOC(=O)Nc1nc2ccc(Sc3ccccc3)cc2[nH]1"
  unit text: "%"
  value measured: 2.02
- compound: "Cc1nc(N=C(N)N)nc2ccc3ccccc3c12"
  unit text: "%"
  value measured: -55.8
- compound: "COc1cc(Cl)cc(-c2nn(-c3cccc(NC(=O)c4ccc(N5CCOCC5)c(C(F)(F)F)c4)c3)cc2-c2ccncc2)c1"
  unit text: "%"
  value measured: 50.2

// recorded growth for O=C(Nc1ccccc1)NS(=O)(=O)c1c[nH]c(=S)[nH]c1=O : 112

// recorded growth for C=C(C)[C@@H]1CC[C@]2(C)[C@H](CC=C3[C@@H]4CC(C)(C)CC[C@]4(CO)CC[C@]32C)[C@@]1(C)CCCN : -56.3

// recorded growth for COc1cc(C2C(C#N)=C(N)Oc3cc(O)ccc32)cc(OC)c1OC (centres undefined) : -16

// recorded growth for COc1cc(-c2csc(NC(=O)Nc3cc(C(F)(F)F)cc(C(F)(F)F)c3)n2)cc(OC)c1OC : 4.77

// recorded growth for Oc1ccc([S+](c2ccc(O)cc2)c2ccc(O)cc2)cc1 : 98

// recorded growth for Cc1nc2nc(C(F)(F)F)[nH]c2nc1C : 102

// recorded growth for NC(CC(N)C(=O)O)C(=O)O (centres undefined) : 90.5

// recorded growth for CC[C@H](Nc1ncnc2nc[nH]c12)c1nc2cccc(NCc3ccc(C(=O)NO)nc3)c2c(=O)n1-c1ccccc1 : 11.1

// recorded growth for N=C(N)c1ccc(-c2ccc(-c3ccc4ccccc4c3)s2)s1 : -16.3

// recorded growth for CCSC1=CC(=O)c2ccccc2C1=O : -88.1

// recorded growth for O=C1NC(=Nc2ccc(S(=O)(=O)Nc3nccs3)cc2)S/C1=C\c1coc2ccccc2c1=O : 99.9

// recorded growth for CC(C)CCC[C@@H](C)[C@H]1CCC2C3=CCC4C(=O)C=CC(=O)C4C3CC[C@@]21C (some centres undefined) : 2.69

// recorded growth for COc1cc(-c2nn(-c3cccc(NC(=O)Nc4ccc(Cl)c(C(F)(F)F)c4)c3)cc2-c2ccncc2)ccc1Cl : -7.22

// recorded growth for O=C1/C(=C/c2ccc(F)cc2)COc2ccc(O)c(O)c21 : -2.42

// recorded growth for COc1ccc(-c2nc3sc(-c4ccccc4)c(-c4ccccc4)n3c2/C=C/c2ccc(F)cc2)cc1 : 82.7
